- Assay Details: Clearance in dog liver microsomes at 1 uM after 60 mins in presence of NADPH by UPLC analysis
- Assay type: ADME, Canis lupus familiaris, microsome
- Condition Label: read-out: CLH
Measurement Label: microsomal CLint at 1 µM (µL/min/mg)
Write it as a number; the unit µL/min/mg goes unstated.

Which value of microsomal CLint at 1 µM has been reported for "CC[C@H]1[C@@H](O)CC(=O)N1c1ccc(C#N)c(C(F)(F)F)c1" in the records?
4

* * *

- System: Androgen receptor (Homo sapiens, UniProt P10275)
- Sequence (P10275 whole entry): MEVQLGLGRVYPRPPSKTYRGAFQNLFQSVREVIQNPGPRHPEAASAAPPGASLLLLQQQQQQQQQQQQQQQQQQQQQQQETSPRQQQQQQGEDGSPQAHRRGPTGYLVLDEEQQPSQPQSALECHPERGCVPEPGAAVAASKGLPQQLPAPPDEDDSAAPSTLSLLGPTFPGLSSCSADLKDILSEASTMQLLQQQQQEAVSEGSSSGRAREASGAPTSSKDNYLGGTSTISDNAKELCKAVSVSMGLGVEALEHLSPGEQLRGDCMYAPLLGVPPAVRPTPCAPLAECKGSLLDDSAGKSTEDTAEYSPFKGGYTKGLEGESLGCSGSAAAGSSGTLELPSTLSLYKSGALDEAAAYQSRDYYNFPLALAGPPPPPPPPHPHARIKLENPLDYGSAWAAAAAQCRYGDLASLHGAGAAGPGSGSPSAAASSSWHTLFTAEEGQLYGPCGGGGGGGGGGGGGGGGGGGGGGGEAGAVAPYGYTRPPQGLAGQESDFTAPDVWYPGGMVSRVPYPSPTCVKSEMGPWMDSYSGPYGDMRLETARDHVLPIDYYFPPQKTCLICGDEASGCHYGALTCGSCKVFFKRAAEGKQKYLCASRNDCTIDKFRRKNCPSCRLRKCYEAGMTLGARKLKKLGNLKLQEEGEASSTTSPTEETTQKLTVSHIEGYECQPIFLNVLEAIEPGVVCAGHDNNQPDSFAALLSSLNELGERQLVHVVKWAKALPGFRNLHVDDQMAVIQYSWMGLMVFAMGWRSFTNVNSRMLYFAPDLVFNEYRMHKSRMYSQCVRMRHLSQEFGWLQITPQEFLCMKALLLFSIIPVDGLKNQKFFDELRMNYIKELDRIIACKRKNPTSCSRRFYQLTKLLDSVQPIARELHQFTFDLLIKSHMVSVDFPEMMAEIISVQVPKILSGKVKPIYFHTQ
pEC50: −log10 of the molar value.
Outcome label depends on pEC50 relative to 7: at/above gives Criterion met, below gives Criterion not met.

# Structure Notation, Label
data = [
    ("CC[C@H]1[C@@H](O)CC(=O)N1c1ccc(C#N)c(Cl)c1", "Criterion met"),
]

Please tell me: is the molecule "CC(C)C[C@H]1[C@@H](O)CC(=O)N1c1ccc(C#N)c(Cl)c1" at or over 7 in terms of pEC50?
Criterion not met

Likewise for "CC[C@H]1[C@@H](O)CC(=O)N1c1ccc(C#N)c(Cl)c1C" ?
Criterion met

Continue with "C[C@H]1[C@@H](O)CC(=O)N1c1ccc(C#N)c(Cl)c1"
Criterion not met

Repeat with "CC[C@H]1[C@@H](O)CC(=O)N1c1ccc(C#N)c(OC)c1"
Criterion met

These data points were gathered from ChEMBL document CHEMBL4020736.
